Origin of measurements: ChEMBL document CHEMBL4321867

method notes: physchem
condition details: buffer, pH 4
readout kind: solubility at 24 h (µg/mL)
Dear colleague, please return just the value in µg/mL, with no unit written.

C[C@@](CCN1Cc2cc(C#CC#C[C@@H]3C[C@H]3[C@H](O)CO)cn2C1=O)(C(=O)NO)S(C)(=O)=O    618
C[C@@](CCN1Cc2cc(C#CC#C[C@@H]3C[C@@]3(F)CO)cn2C1=O)(C(=O)NO)S(C)(=O)=O    220
C[C@@](CCN1Cc2cc(C#CC#C[C@H]3C[C@@H]3CO)cn2C1=O)(C(=O)NO)S(C)(=O)=O    600
C[C@@](CCN1Cc2cc(C#CC#CC3(CO)CC3)cn2C1=O)(C(=O)NO)S(C)(=O)=O    149

response.value for `C[C@@](CCN1Cc2cc(C#CC#C[C@H]3C[C@]3(F)CO)cn2C1=O)(C(=O)NO)S(C)(=O)=O` (field: solubility at 24 h) = 354

response.value for `C[C@]1(CO)C[C@@H]1C#CC#Cc1cc2n(c1)C(=O)N(CC[C@](C)(C(=O)NO)S(C)(=O)=O)C2` (field: solubility at 24 h) = 344

response.value for `CNC1(C#CC#Cc2cc3n(c2)C(=O)N(CC[C@](C)(C(=O)NO)S(C)(=O)=O)C3)CC1` (field: solubility at 24 h) = 551
